- ASSAY_INFO: small-molecule microarray binders of probe aShh, primary screen, biochemical, biotinylated probe, 635/667 nm fluorescence (AID 1114);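 note: probe is biotin-labelled aShh protein from a stem cell growth factor screen; measures binding of labelled protein to compounds printed on the slide; score merges feature fluorescence at 667 nm with signal-to-noise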
- CONDITIONS: higher = more signal
MEASURED_PARAMETER: composite z-score

>>> endpoint_result("CON=C[C@@H](C)[C@H](OCc1ccccc1)C(C)C")
-0.419
>>> endpoint_result("CC(CCN1CCCCc2nc(C)c(C)cc21)=NOC[C@@H](O)COCc1ccco1")
0.0121
>>> endpoint_result("COC(=O)CC=C[C@@H](C)[C@@H](C=NO[C@@H](C)c1cc(-c2c(C)cc(C)cc2C)no1)NS(=O)(=O)c1ccc(C)cc1")
-0.138
>>> endpoint_result("CCOC(=O)[C@H](CC(C)C)NC(=O)CCC1CC(OC(=O)NCCc2ccc(F)cc2)CC2(CCCC(COC(=O)NCC(c3ccccc3)c3ccccc3)O2)O1 (stereo partly drawn)")
-0.214
>>> endpoint_result("Cc1cc2c(nc1C)CCCCN2CC(C)ON=C[C@@H](C)[C@H](OCc1ccccc1)C(C)C (stereo partly drawn)")
-0.214
>>> endpoint_result("CO[C@H]1COC(=O)[C@@H](C)COC(=O)[C@H](COCc2ccccc2)NC(=O)CC=C[C@H]1C")
0.0062
>>> endpoint_result("COC(=O)[C@H](C)NC(=O)CCC1CC(OC(=O)NCc2cccc3ccccc23)CC2(CCCC(COC(=O)NCC(c3ccccc3)c3ccccc3)O2)O1 (stereo partly drawn)")
-0.273
>>> endpoint_result("CC(C)(C)N1C(=O)[C@H]2[C@H]3[C@H](O)[C@H](O)CC(=O)[C@H]3CC[C@H]2C1=O")
-0.186

###

- ASSAY_INFO: A549 lung cancer cell viability effects, profiling panel, resazurin fluorescence, 24 h, PK04 Diversity Set (AID 1171); note: test concentration not given here
- CONDITIONS: higher = more signal, called active from +8 up or from −8 down
Rule: z-score of 0.3 or more gives fulfilled; anything lower gives not fulfilled.

>>> label("CC(=O)OC[C@H]1O[C@H](CC=NO[C@H](C)c2cn([C@H](CO)Cc3ccccc3)nn2)C=C[C@@H]1OC(C)=O")
"fulfilled"
>>> label("Cc1ccc(S(=O)(=O)n2c3ccccc3c3nnc(C(=O)c4ccccc4)nc32)cc1")
"not fulfilled"
>>> label("CO[C@@H]1COC(=O)[C@@H](C)COC(=O)[C@@H](C)NC(=O)CC=C[C@@H]1C")
"fulfilled"
>>> label("CC(C)CON=C1C[C@@H](O)[C@@H](O)[C@@H]2[C@@H]3C(=O)N(c4ccc(F)cc4F)C(=O)[C@@H]3CC[C@H]12")
"fulfilled"
>>> label("C=Cc1ccc([C@H]2N[C@H](C(=O)O)CC[C@@H]2C)cc1")
"not fulfilled"
>>> label("CCOC(=O)NN=C1C[C@@H](O)[C@@H](O)[C@@H]2[C@@H]3C(=O)N(C(C)(C)C)C(=O)[C@@H]3CC[C@H]12")
"not fulfilled"
>>> label("CC(C)CON=C1C[C@@H](O)[C@@H](O)[C@@H]2[C@@H]3C(=O)N(C4CCCCC4)C(=O)[C@@H]3CC[C@@H]12")
"not fulfilled"
>>> label("CC(C)(C)N1C(=O)[C@H]2[C@H]3[C@H](O)[C@H](O)CC(=NOCc4ccccc4)[C@H]3CC[C@H]2C1=O")
"fulfilled"

###

- ASSAY_INFO: A549 cell viability effects, profiling panel, calcein-AM fluorescence, 48 h, basal (AID 1162); note: test concentration not given here
- CONDITIONS: higher = more signal
# z-score annotations
MEASURED_PARAMETER: z-score

>>> endpoint_result("O=c1n(-c2ccccc2)c(=O)n2n1CC[C@@H]1C(=NOCc3ccccc3)[C@H]3O[C@H]3[C@@H](O)[C@@H]12")
0.172
>>> endpoint_result("C[C@@H](c1ccccc1)N1C(=O)[C@H]2[C@H]3[C@H](O)[C@H](O)CC(=NO[C@@H]4O[C@H](CO)[C@@H](O)[C@H](O)[C@H]4O)[C@@H]3CC[C@H]2C1=O")
-0.57
>>> endpoint_result("Cc1cc2c(nc1C)CCCCN2CC(C)ON=C[C@@H](C)[C@H](OCc1ccccc1)C(C)C (stereo not given in full)")
-0.672
>>> endpoint_result("C#CCCCON=C1C[C@@H](O)[C@@H](O)[C@@H]2[C@@H]3C(=O)N(CC)C(=O)[C@@H]3CC[C@@H]12")
-0.36
>>> endpoint_result("CCOC(=O)[C@H](Cc1ccccc1)NC(=O)CCC1CC(OC(=O)NCc2cccc3ccccc23)CC2(CCCC(COC(=O)NCCC(C)C)O2)O1 (stereo not given in full)")
0.509
>>> endpoint_result("CCOC(=O)[C@H](Cc1ccccc1)NC(=O)CCC1CC(OC(=O)NCc2ccc3c(c2)OCO3)CC2(CCCC(COC(=O)NCCC(C)C)O2)O1 (stereo not given in full)")
0.339
>>> endpoint_result("Cc1ccc(S(=O)(=O)n2c3ccccc3c3nnc(C(=O)c4ccccc4)nc32)cc1")
1.8
>>> endpoint_result("O=C1CCCC=C1C(CCc1ccccc1)OC(=O)c1ccc(Br)cc1 (stereo not given)")
-0.281
>>> endpoint_result("C=CC1=C[C@H](O)[C@@H]2O[C@@H]2C12OCCCO2")
-0.375
>>> endpoint_result("COC(=O)[C@H]1O[C@@H](c2c(OC)c(OC)c(C)c(OC)c2OC)[C@H](C)[C@@H](O)[C@H]1C")
1.2
>>> endpoint_result("CCO[C@H](c1cc(OC)cc([N+](=O)[O-])c1OC)[C@H](C)C=CCC(=O)OC")
1.23
>>> endpoint_result("CC[C@@H](c1ccccc1)n1c(=O)n2n(c1=O)[C@H]1[C@H](O)[C@@H]3O[C@@H]3C(=NOC[C@@H](O)COCc3ccco3)[C@H]1CC2")
-0.335
>>> endpoint_result("CCOC(=O)[C@H](CC(C)C)NC(=O)CCC1CC(OC(=O)NCc2cccc3ccccc23)CC2(CCCC(COC(=O)NCc3ccncc3)O2)O1 (stereo not given in full)")
0.357
>>> endpoint_result("COC(=O)CC=C[C@@H](C)[C@@H](C=NO[C@@H]1O[C@H](COC(C)=O)[C@@H](OC(C)=O)[C@H](OC(C)=O)[C@H]1OC(C)=O)OC")
-0.999
>>> endpoint_result("O=C(NN=C1C[C@@H](O)[C@@H](O)[C@@H]2[C@@H]3C(=O)N(C4CCCCC4)C(=O)[C@@H]3CC[C@H]12)OCc1ccccc1")
0.215

###

- ASSAY_INFO: compound binding in COS7 lysate, probe aLAP1, primary screen, cell lysate, small-molecule microarray (AID 1124);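 note: lysate comes from COS7 cells expressing LAP1 and is applied at 0.3 µg/mL; score merges spot fluorescence near 667 nm with signal-to-noise over triplicate slides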
- CONDITIONS: probe aLAP1, fluorescence, higher = more signal
# composite z-score annotations
MEASURED_PARAMETER: composite z-score

>>> endpoint_result("CCN1C(=O)[C@@H]2[C@H]3C(=CC[C@@H]2C1=O)C1(OCCCO1)[C@H]1O[C@H]1[C@H]3O")
0.251
>>> endpoint_result("O=C1C2=CC[C@H]3C(=O)N(c4cccc(Oc5ccccc5)c4)C(=O)[C@H]3[C@H]2[C@H](O)[C@@H]2O[C@H]12")
-0.0224
>>> endpoint_result("C=CC1=C[C@H](O)[C@@H]2O[C@@H]2C12OCCCO2")
-0.115
>>> endpoint_result("COC(=O)NCC=Cc1nc(CCCO)co1")
0.215
>>> endpoint_result("CO[C@H]1COC(=O)CC=C[C@@H](C)[C@H](OC)COC(=O)[C@@H]2CCCN2C(=O)CC=C[C@@H]1C")
-0.322
>>> endpoint_result("COc1ccc(O[C@H]2C=C[C@@H](c3ccccc3)O[C@@H]2CON=C(C)C)cc1")
-0.0187
>>> endpoint_result("CCN1C(=O)[C@H]2[C@H]3[C@H](O)[C@H](O)CC(=NNC(=O)OCc4ccc(OC)cc4)[C@@H]3CC[C@H]2C1=O")
0.106
>>> endpoint_result("CO[C@H]1COC(=O)[C@@H]2CCCN2C(=O)CC=C[C@@H](C)[C@H](OC)COC(=O)[C@@H](OCc2ccccc2)C=C[C@@H]1C")
-0.549

###

- SYSTEM_TESTED: Homeobox protein Hox-A13 (Mus musculus) (UniProt Q62424)
- Sequence (Q62424 whole entry, looked up): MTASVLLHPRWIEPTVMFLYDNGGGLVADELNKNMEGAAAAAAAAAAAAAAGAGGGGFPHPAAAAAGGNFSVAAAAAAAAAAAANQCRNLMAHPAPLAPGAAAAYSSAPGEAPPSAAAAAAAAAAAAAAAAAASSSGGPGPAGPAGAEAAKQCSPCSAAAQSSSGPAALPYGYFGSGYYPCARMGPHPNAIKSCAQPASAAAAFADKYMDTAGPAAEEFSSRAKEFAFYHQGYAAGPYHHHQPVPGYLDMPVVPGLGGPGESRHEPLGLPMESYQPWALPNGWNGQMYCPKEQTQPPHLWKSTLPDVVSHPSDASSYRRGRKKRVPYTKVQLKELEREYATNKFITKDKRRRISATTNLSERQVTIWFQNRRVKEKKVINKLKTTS
- ASSAY_INFO: inhibitors of HoxA13-DNA binding, primary screen, biochemical, fluorescence polarization, labeled oligonucleotide (AID 1185)
- CONDITIONS: 15 min, higher = more signal, called active from +8 up or from −8 down
Rule: z-score of -3 or more gives Satisfied; anything lower gives Not satisfied.

>>> label("CC(C)CON=C1C[C@@H](O)[C@@H](O)[C@@H]2[C@@H]3C(=O)N(C(C)(C)C)C(=O)[C@@H]3CC[C@H]12")
"Satisfied"
>>> label("COC(=O)CC=C[C@@H](C)[C@@H](C=NOC[C@H]1O[C@H](c2ccccc2)C=C[C@@H]1Oc1ccc(OC)cc1)NS(=O)(=O)c1ccc(C)cc1")
"Satisfied"
>>> label("CO[C@H]1COC(=O)[C@@H](C)COC(=O)[C@H](COCc2ccccc2)NC(=O)CC=C[C@H]1C")
"Satisfied"
>>> label("CC(C)=CCCC(C)=CCON=C1C[C@@H](O)[C@@H](O)[C@@H]2[C@@H]3C(=O)N(Cc4ccccc4)C(=O)[C@@H]3CC[C@H]12")
"Not satisfied"
>>> label("CCc1cc2c(nc1CC)CCN(CCC(C)=NO[C@H](C)c1cn([C@@H]3COC[C@H]3O)nn1)C2")
"Satisfied"
>>> label("CO[C@H]1COC(=O)CC=C[C@H](C)[C@@H](OC)COC(=O)[C@@H](C)NC(=O)CC=C[C@@H]1C")
"Satisfied"
>>> label("CON=C(C)CCC(=O)OC[C@H]1O[C@H](c2ccccc2)C=C[C@@H]1Oc1ccc(OC)cc1")
"Not satisfied"
